Data credit: ChEMBL document CHEMBL2311464

Reported pIC50 values follow for various compounds
- TESTED SYSTEM: Cyclin-dependent kinase 5/CDK5 activator 1 (Homo sapiens, UniProt Q00535)
- Sequence (Q00535 whole entry): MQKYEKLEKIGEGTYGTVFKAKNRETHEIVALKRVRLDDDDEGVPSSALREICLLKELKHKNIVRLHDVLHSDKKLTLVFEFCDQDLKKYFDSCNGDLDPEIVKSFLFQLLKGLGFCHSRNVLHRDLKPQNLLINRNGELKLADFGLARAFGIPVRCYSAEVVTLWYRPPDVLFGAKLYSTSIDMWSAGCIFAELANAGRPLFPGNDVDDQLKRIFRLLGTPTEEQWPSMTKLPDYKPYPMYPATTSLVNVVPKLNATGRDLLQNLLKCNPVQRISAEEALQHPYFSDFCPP
- Sequence (Q15078 whole entry, further chain): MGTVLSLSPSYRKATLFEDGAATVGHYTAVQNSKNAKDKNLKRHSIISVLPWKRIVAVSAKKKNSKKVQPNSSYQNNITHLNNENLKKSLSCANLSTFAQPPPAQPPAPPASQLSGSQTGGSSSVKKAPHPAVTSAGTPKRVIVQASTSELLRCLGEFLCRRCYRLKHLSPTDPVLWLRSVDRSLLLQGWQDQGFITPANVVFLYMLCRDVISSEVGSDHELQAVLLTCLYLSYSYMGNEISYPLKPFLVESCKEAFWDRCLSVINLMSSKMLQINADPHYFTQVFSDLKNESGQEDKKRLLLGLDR
- ASSAY OVERVIEW: Inhibition of recombinant human CDK5/p25 after 30 mins by scintillation counting
Just the number, please; pIC50 means minus log10 of the concentration in mol/L.

// pIC50 lookup, key: CC(C)[C@H](CO)Nc1nc(Nc2ccncn2)c2ncn(C(C)C)c2n1 6.14

Item: CC[C@H](CO)Nc1nc(Nc2cccc(-c3ccccn3)c2)c2ncn(C(C)C)c2n1 7.10

Also, CC(C)[C@@H](CO)Nc1nc(Nc2ccccn2)c2ncn(C(C)C)c2n1 please. 5.72
